Where do these numbers come from? They come from patent US20240132513A1.

List of Ki values.
- measurement_target: α5β3γ2 GABAA R (Homo sapiens, UniProt P18507+P31644)
- Sequence (P31644 32-462): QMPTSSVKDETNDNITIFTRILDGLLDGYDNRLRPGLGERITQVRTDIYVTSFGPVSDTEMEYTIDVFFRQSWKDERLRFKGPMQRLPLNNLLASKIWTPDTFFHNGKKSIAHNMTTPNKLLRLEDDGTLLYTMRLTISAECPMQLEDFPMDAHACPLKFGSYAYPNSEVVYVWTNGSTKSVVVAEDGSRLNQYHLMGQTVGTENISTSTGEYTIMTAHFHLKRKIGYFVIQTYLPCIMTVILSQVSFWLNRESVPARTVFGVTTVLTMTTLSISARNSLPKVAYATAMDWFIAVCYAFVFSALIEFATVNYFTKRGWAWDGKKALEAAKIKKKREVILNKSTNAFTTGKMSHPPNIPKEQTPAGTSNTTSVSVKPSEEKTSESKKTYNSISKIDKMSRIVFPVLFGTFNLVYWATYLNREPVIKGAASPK
- Sequence (P28472 26-473 partner): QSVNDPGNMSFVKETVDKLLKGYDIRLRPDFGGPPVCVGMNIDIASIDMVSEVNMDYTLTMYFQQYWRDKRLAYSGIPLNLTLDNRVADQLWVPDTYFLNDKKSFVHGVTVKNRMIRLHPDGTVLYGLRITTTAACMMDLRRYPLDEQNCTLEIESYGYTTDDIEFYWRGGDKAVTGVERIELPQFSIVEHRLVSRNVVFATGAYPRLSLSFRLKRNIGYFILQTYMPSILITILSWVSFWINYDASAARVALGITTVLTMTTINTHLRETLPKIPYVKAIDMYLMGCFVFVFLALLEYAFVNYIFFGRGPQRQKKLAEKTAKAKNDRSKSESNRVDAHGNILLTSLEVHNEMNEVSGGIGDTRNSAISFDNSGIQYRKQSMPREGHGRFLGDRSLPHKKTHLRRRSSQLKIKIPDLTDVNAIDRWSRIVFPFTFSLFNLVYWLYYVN
- Sequence (P18507 40-475): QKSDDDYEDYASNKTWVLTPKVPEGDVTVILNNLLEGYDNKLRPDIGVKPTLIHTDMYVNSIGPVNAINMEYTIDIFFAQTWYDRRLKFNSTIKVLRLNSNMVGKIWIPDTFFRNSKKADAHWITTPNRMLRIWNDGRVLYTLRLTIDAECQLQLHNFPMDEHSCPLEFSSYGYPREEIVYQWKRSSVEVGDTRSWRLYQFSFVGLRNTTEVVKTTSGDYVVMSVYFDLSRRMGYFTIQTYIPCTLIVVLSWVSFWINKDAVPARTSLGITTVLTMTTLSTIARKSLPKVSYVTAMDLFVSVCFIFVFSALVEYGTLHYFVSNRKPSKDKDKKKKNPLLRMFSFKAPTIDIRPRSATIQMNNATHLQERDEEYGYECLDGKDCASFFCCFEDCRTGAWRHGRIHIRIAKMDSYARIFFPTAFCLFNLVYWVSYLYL
- measurement_protocol: Binding activity on GABAA R: inhibition of [3H]Ro15-1788 binding, α5 containing receptor

Take a look at these entries with their results.
compound: CCn1cc2c(n1)-c1cc(Cl)ccc1-n1cnc(C3=N[C@H](C(C)C)CO3)c1C2
measurement_target: α5β3γ2 GABAA R (Homo sapiens, UniProt P18507+P31644)
value_kind: Ki
result: < 100 nM
//
compound: COc1ccc2c(c1)-c1[nH]ncc1Cc1c(-c3cnn(-c4ccccc4)c3)ncn1-2
measurement_target: α5β3γ2 GABAA R (Homo sapiens, UniProt P18507+P31644)
value_kind: Ki
result: 100 to 1000 nM
//
compound: COCCOCc1coc(-c2ncn3c2Cc2cn(C)nc2-c2cc(Cl)ccc2-3)n1
measurement_target: α5β3γ2 GABAA R (Homo sapiens, UniProt P18507+P31644)
value_kind: Ki
result: < 100 nM
//
compound: COCCn1cc2c(n1)-c1cc(OC)ccc1-n1cnc(-c3noc(C(C)(C)OC)n3)c1C2
measurement_target: α5β3γ2 GABAA R (Homo sapiens, UniProt P18507+P31644)
value_kind: Ki
result: < 100 nM
//
compound: Cn1cc(-c2ncn3c2Cc2cn[nH]c2-c2cc(Cl)ccc2-3)cn1
measurement_target: α5β3γ2 GABAA R (Homo sapiens, UniProt P18507+P31644)
value_kind: Ki
result: 100 to 1000 nM

Missing value: Ki, α5β3γ2 GABAA R (Homo sapiens, UniProt P18507+P31644), entry Cn1cc2c(n1)-c1cc(Cl)ccc1-n1cnc(-c3nc(C4CCOCC4)no3)c1C2 . Fill in? < 100 nM

Try this compound too: COC(C)(C)c1noc(-c2ncn3c2Cc2cn(CC4CCCO4)nc2-c2cc(Cl)ccc2-3)n1 (centres unmarked) < 100 nM

# iterate: COc1ccc2c(c1)-c1nn(C)cc1Cc1c(-c3noc(Cn4cccn4)n3)ncn1-2 < 100 nM

----------
Entries and their measured Ki follow.
- measurement_target: α5β3γ2 GABAA R (Homo sapiens, UniProt P18507+P31644)
- measurement_protocol: Binding activity on GABAA R: inhibition of [3H]Ro15-1788 binding, α5 containing receptor

molecule: COc1ccc2c(c1)-c1nn(C)cc1Cc1c(-c3noc(C(C)(C)C)n3)ncn1-2
Ki: < 100 nM
--
molecule: Cn1cc2c(n1)-c1cc(Cl)ccc1-n1cnc(-c3nc(CN4CCCC4=O)co3)c1C2
Ki: < 100 nM
--
molecule: COCc1noc(-c2ncn3c2Cc2cn(CC4CCCO4)nc2-c2cc(Cl)ccc2-3)n1 (stereo not shown)
Ki: < 100 nM
--
molecule: Cn1cc2c(n1)-c1cc(Cl)ccc1-n1cnc(-c3nc(C4COC4)no3)c1C2
Ki: < 100 nM
--
molecule: COc1ccc2c(c1)-c1nn(Cc3cccnc3)cc1Cc1c(-c3nc(C(C)C)no3)ncn1-2
Ki: < 100 nM
--
molecule: Cn1cc2c(n1)-c1cc(Cl)ccc1-n1cnc(-c3noc(Cn4cccn4)n3)c1C2
Ki: < 100 nM

Given CC(C)(C)c1noc(-c2ncn3c2Cc2cn[nH]c2-c2cc(Cl)ccc2-3)n1 , state its recorded Ki. < 100 nM

Next record, please: COc1ccc2c(c1)-c1nn(CCOC(F)(F)F)cc1Cc1c(-c3noc(C(C)(C)OC)n3)ncn1-2 < 100 nM

Record: Clc1ccc2c(c1)-c1nn(CC3CCCO3)cc1Cc1c(-c3nc(C4CCOC4)no3)ncn1-2 (stereo not shown) < 100 nM

Could you do the same for CC(C)c1noc(-c2ncn3c2Cc2cn(CC4CCCO4)nc2-c2cc(Cl)ccc2-3)n1 (stereo not shown) , please? < 100 nM

Also COc1ccc2c(c1)-c1nn(Cc3ccccc3F)cc1Cc1c(-c3cnn(-c4ccccc4)c3)ncn1-2 ? 100 to 1000 nM

Cn1cc2c(n1)-c1cc(Cl)ccc1-n1cnc(-c3cnn(Cc4cccnc4)c3)c1C2 , same question. < 100 nM

Lookup COc1ccc(Cn2ncc3c2-c2cc(OC)ccc2-n2cnc(C#Cc4ccnn4C)c2C3)cc1 100 to 1000 nM

Consider next the molecule CC(C)c1nc(-c2ncn3c2Cc2cn(C(C)C)nc2-c2cc(Cl)ccc2-3)no1 in the same way. < 100 nM

Now consider COc1ccc2c(c1)-c1nn(CC3CCCO3)cc1Cc1c(-c3noc(COC(C)C)n3)ncn1-2 (stereo not shown) and answer again. < 100 nM

Do the same for CN(C)Cc1coc(-c2ncn3c2Cc2cn(C)nc2-c2cc(Cl)ccc2-3)n1 please < 100 nM

----------
- measurement_target: α5β3γ2 GABAA R (Homo sapiens, UniProt P18507+P31644)
- measurement_protocol: Binding activity on GABAA R: inhibition of [3H]Ro15-1788 binding, α5 containing receptor
- assay_context: ranges of the column heads; [3H]Ro15-1788, Ltk cell membranes
pKi: −log10 of the molar value.
value_kind: pKi

compound: COc1ccc2c(c1)-c1nn(C)cc1Cc1c(-c3nc(CN(C(C)=O)C(C)C)co3)ncn1-2 [Compound 381]
value_kind: pKi
result: > 7.00

compound: COc1ccc2c(c1)-c1nn(C)cc1Cc1c(-c3noc(C4CCOCC4)n3)ncn1-2 [Compound 324]
value_kind: pKi
result: > 7.00

compound: CC(C)c1noc(-c2cnc3n2CC(=O)Nc2cc(Cl)ccc2-3)n1 [Compound 27]
value_kind: pKi
result: < 6.00

compound: COc1ccc2c(c1)-c1oncc1Cc1c(-c3nc(CC(C)C)no3)ncn1-2 [Compound 67]
value_kind: pKi
result: < 6.00

Which pKi value is on record for COc1ccc2c(c1)-c1oncc1Cc1c(-c3nc(C)no3)ncn1-2 [Compound 42] ? < 6.00

----------
- measurement_target: GABAA R (α5β2γ2) (Homo sapiens, UniProt P18507+P31644)
- Construct: expressed in transfected cells
- Sequence (P47870 25-512 partner limits assumed, one chain of several): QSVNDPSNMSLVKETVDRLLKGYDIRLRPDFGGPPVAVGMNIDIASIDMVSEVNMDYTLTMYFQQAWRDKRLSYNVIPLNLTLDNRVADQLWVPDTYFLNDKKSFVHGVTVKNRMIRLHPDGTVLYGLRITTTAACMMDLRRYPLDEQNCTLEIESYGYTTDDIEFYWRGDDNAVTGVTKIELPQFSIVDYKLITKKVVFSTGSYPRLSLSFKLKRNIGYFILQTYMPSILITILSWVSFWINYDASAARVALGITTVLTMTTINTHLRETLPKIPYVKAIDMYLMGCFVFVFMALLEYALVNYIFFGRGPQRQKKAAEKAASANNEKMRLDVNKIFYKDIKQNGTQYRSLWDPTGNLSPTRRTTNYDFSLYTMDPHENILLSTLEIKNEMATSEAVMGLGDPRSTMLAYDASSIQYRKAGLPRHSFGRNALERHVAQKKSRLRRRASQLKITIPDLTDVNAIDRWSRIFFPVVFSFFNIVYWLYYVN
- measurement_protocol: Positive allosteric modulator activity: potentiation of EC20 GABA current in oocytes
- Format: cell-based
- assay_context: read-out: GABA α5 Functional Data: potentiation
Reported activation at 0.1 µM values for the following compounds.

Reference set (5 entries):
compound: CCn1cc2c(n1)-c1cc(Cl)ccc1-n1cnc(-c3nc(C4CC4)no3)c1C2
measurement_target: GABAA R (α5β2γ2) (Homo sapiens, UniProt P18507+P31644)
result: 20 to 50%

compound: COCCn1cc2c(n1)-c1cc(Cl)ccc1-n1cnc(-c3nc(C(C)C)no3)c1C2
measurement_target: GABAA R (α5β2γ2) (Homo sapiens, UniProt P18507+P31644)
result: 20 to 50%

compound: COCc1coc(-c2ncn3c2Cc2cn(C)nc2-c2cc(Cl)ccc2-3)n1
measurement_target: GABAA R (α5β2γ2) (Homo sapiens, UniProt P18507+P31644)
result: > 50%

compound: COc1ccc2c(c1)-c1c(cnn1Cc1ccccc1)Cc1c(-c3nc(C)no3)ncn1-2
measurement_target: GABAA R (α5β2γ2) (Homo sapiens, UniProt P18507+P31644)
result: 20 to 50%

compound: CC(C)n1cc2c(n1)-c1cc(Cl)ccc1-n1cnc(-c3noc(C(F)(F)F)n3)c1C2
measurement_target: GABAA R (α5β2γ2) (Homo sapiens, UniProt P18507+P31644)
result: 5 to 20%

Query: activation at 0.1 µM; subject: COc1ccc2c(c1)-c1nn(C)cc1Cc1c(-c3nc(C4CC4)no3)ncn1-2 20 to 50%

Consider next the compound Clc1ccc2c(c1)-c1[nH]ncc1Cc1c(-c3cnco3)ncn1-2 in the same way. 5 to 20%

Repeat for the following compound: CCn1cc2c(n1)-c1cc(Cl)ccc1-n1cnc(-c3nc(C(C)C)no3)c1C2 5 to 20%

Follow-up entry: FC(F)(F)c1noc(-c2ncn3c2Cc2cn(CC4CCOC4)nc2-c2cc(Cl)ccc2-3)n1 (centres unmarked) 20 to 50%

Repeat for the following compound: COc1ccc2c(c1)-c1c(cnn1C)Cc1c(-c3noc(COCC(F)(F)F)n3)ncn1-2 > 50%

----------
Entries annotated with measured pKi
- measurement_target: α5β3γ2 GABAA R (Homo sapiens, UniProt P18507+P31644)
- measurement_protocol: Binding activity on GABAA R: inhibition of [3H]Ro15-1788 binding, α5 containing receptor
pKi: −log10 of the molar value.

Given the molecule COCc1nc(-c2ncn3c2Cc2cn(CC4CCCO4)nc2-c2cc(OC)ccc2-3)no1 (centres unmarked) , what is its reported pKi? > 7.00

Moving on to the next molecule: COc1ccc2c(c1)-c1[nH]ncc1Cc1c(C3=N[C@@H](c4ccccc4)CO3)ncn1-2 > 7.00

Then Cn1cc2c(n1)-c1cc(Cl)ccc1-n1cnc(-c3nc(C(F)(F)F)no3)c1C2 ? > 7.00

# repeat for Cn1cc2c(n1)-c1cc(Cl)ccc1-n1cnc(-c3cnn(C4CCCO4)c3)c1C2 (centres unmarked) 6.00 to 7.00

Also Cn1cc2c(n1)-c1cc(Cl)ccc1-n1cnc(-c3noc(C4CCOC4)n3)c1C2 (centres unmarked) , if possible. > 7.00

What do we get for COc1ccc2c(c1)-c1n[nH]cc1Cc1c(-c3noc(C4(F)CC4)n3)ncn1-2 ? > 7.00

Query COc1ccc2c(c1)-c1nn(CC3CCCO3)cc1Cc1c(-c3noc(C(C)(C)OC)n3)ncn1-2 (centres unmarked) next > 7.00

Another: Clc1ccc2c(c1)-c1[nH]ncc1Cc1c(-c3cnn(-c4ccccc4)c3)ncn1-2 6.00 to 7.00
